Assay: physchem
Details: aqueous, pH 7.4
Description: Aqueous solubility of the compound at pH 7.4 by HPLC analysis
Hi there, I'd appreciate the recorded solubility for every entry that follows.

Give its solubility value. Item: COc1cc2[nH]c(C)c(C)c(=O)c2cc1Cl
5 µM

Can you share its solubility? I mean this compound: COc1cc2[nH]c(C)c(-c3ccccc3)c(=O)c2cc1Br
< 2 µM

Could you share which solubility value was measured for C=C(CCCCCCC)c1c(C)[nH]c2ccccc2c1=O ?
< 2 µM

// lookup solubility for COc1cc2[nH]c(C)c(-c3ccccc3)c(=O)c2cc1Cl
5 µM

State the recorded solubility for this entry: Cc1[nH]c2ccccc2c(=O)c1/C=C/c1ccc(O)cc1
> 20 µM

Requested field: solubility. Item: CCCCC#Cc1c(C)[nH]c2cc(OC)c(Cl)cc2c1=O
> 20 µM

Dear colleague, I am looking for the recorded solubility of the following compound: Cc1[nH]c2cc(Cl)ccc2c(=O)c1-c1ccccc1
< 2 µM

Which solubility is listed for COc1cccc2[nH]c(C)c(Cc3ccccc3)c(=O)c12 ?
> 20 µM

Quick one: solubility of Cc1[nH]c2ccccc2c(=O)c1/C=C/C(=O)OC(C)(C)C ?
> 20 µM

Bench note: what solubility did COc1cc2[nH]c(C)c(-c3ccccc3)c(=O)c2cc1F show?
5 µM

// query solubility value for entry Cc1[nH]c2cc(Cl)c(Cl)cc2c(=O)c1-c1ccccc1
< 2 µM

Field request: solubility | item: Cc1[nH]c2c(Cl)cc(Cl)cc2c(=O)c1-c1ccccc1
< 2 µM

###

Tested on: Plasmodium falciparum
Assay: Antimalarial activity against chloroquine, mefloquine, pyrimethamine and atovaquone-resistant Plasmodium falciparum TM90-C2B infected in human A+ erythrocytes after 72 hrs by SYBR Green I assay
Assay type: functional, organism-based
Provide the reported pEC50 of each item.
Remember the convention: pEC50 equals -log10 of concentration in molar.

Data request, read-out pEC50, for Cc1[nH]c2cc(Cl)cc(Cl)c2c(=O)c1-c1ccccc1
5.46

For the molecule COc1ccc2c(c1)c(=O)c(Cc1ccccc1)c(C)n2C , what pEC50 is on record?
5.09

Could you share which pEC50 value was measured for CCCCCCCCCc1c(C)[nH]c2ccccc2c1=O ?
7.40

Which pEC50 is listed for COc1cc2[nH]c(C)c(C3CCCCC3)c(=O)c2cc1Cl ?
6.40

Entry under review: CCN(CC)CCCC(C)Nc1ccnc2cc(Cl)ccc12 (stereo unspecified) [CHLOROQUINE] . Reported pEC50?
7.32

Fill blank: measured pEC50 of the molecule Cc1[nH]c2cc(Cl)ccc2c(=O)c1-c1ccccc1 is ____.
5.73

Quick check: pEC50 of Cc1[nH]c2ccccc2c(=O)c1Cc1ccccc1 ?
5.21

For the molecule CCCCCCCc1c(C)nc2ccccc2c1O , what pEC50 is on record?
6.98

Look up pEC50: COc1cc2[nH]c(C)c(-c3ccccc3)c(=O)c2cc1Cl
7.82

Param item = Cc1[nH]c2cccc(Cl)c2c(=O)c1Cc1ccccc1 ; retrieve measured pEC50.
5.28

Given the entry COc1cccc2[nH]c(C)c(Cc3ccccc3)c(=O)c12 , report its measured pEC50.
5.68

Give the measured pEC50 of Cc1ccc2[nH]c(C)c(Br)c(=O)c2c1 .
6.58

// lookup pEC50 for CCCCCCCc1c(C)nc2cc(OC)ccc2c1O
7.33

Fill blank: measured pEC50 of the molecule Cc1[nH]c2ccccc2c(=O)c1-c1ccccc1 is ____.
6.27

Which pEC50 is listed for COc1ccc2[nH]c(C)c(Br)c(=O)c2c1 ?
5.93

Item C=C(CCCCC)c1c(C)[nH]c2cc(OC)c(Cl)cc2c1=O has what recorded pEC50?
7.83

Recorded pEC50 for CCCCC#Cc1c(C)[nH]c2ccc(Cl)cc2c1=O , please?
4.37

Which pEC50 reading was recorded for the molecule Cc1[nH]c2ccccc2c(=O)c1/C=C/c1cccc([N+](=O)[O-])c1 ?
5.83

Find the recorded pEC50 belonging to COc1cc2[nH]c(C)cc(=O)c2cc1Cl and report it.
5.73

Bench note: what pEC50 did Cc1[nH]c2ccc(Cl)c(Cl)c2c(=O)c1-c1ccccc1 show?
5.49

###

Experiment: Lipophilicity, log D of the compound at pH 7.4
Conditions: buffer
Kindly supply the reported logD values for the records listed here.
Give a plain numeric answer without units written out.

Give its logD value. Item: CCCCCC/C=C\Cc1c(C)[nH]c2ccccc2c1=O
5.94

Requested field: logD. Item: CCCCC#Cc1c(C)[nH]c2cc(OC)c(Cl)cc2c1=O
2.45

GET /values?readout=logD&item= COc1cc2[nH]c(C)cc(=O)c2cc1Cl
1.95

Please give the measured logD for this compound: Cc1[nH]c2ccc(Cl)cc2c(=O)c1-c1ccccc1
2.43

What value of logD has been reported for the following compound? COc1cc2[nH]c(C)c(-c3ccccc3)c(=O)c2cc1Cl
1.65

Can you share its logD? I mean this compound: Cc1[nH]c2ccccc2c(=O)c1/C=C/c1cccc([N+](=O)[O-])c1
2.95

Name the reported logD value associated with the compound COc1ccc2c(c1)c(=O)c(Cc1ccccc1)c(C)n2C
2.73

Would you mind telling me what logD value was observed for COc1ccc2[nH]c(C)c(-c3ccccc3)c(=O)c2c1 ?
1.61

Given C=C(CCCCCCC)c1c(C)[nH]c2ccccc2c1=O , state its recorded logD.
2.35

What value of logD has been reported for the following compound? Cc1c(Cc2ccccc2)c(=O)c2cc(Cl)ccc2n1C
3.21

State the recorded logD for this entry: Cc1[nH]c2ccccc2c(=O)c1/C=C/C(=O)OC(C)(C)C
2.34

Recorded logD of COc1cc2[nH]c(C)c(C(C)C)c(=O)c2cc1Cl , please.
2.84

# lookup: logD of COc1cc2[nH]c(C)c(-c3ccccc3)c(=O)c2cc1F
1.72

Returns the measured logD for the input compound. Input: COc1cc2[nH]c(C)c(Cc3ccccc3)c(=O)c2cc1Cl
1.99

For the compound COc1ccc2c(=O)c(-c3ccccc3)c(C)[nH]c2c1 , what logD is on record?
1.56

Look up logD: COc1cccc2c(=O)c(-c3ccccc3)c(C)[nH]c12
1.73

# query: logD of entry COc1ccc2c(=O)c(Cc3ccccc3)c(C)n(C)c2c1
3.24

Name the reported logD value associated with the compound CCCCC#Cc1c(C)[nH]c2ccc(Cl)cc2c1=O
2.98

Which logD reading was recorded for the compound COc1cccc2[nH]c(C)c(Cc3ccccc3)c(=O)c12 ?
2.11

Query: logD; subject: Cc1[nH]c2ccc(Cl)cc2c(=O)c1Br
2.02

Could you tell me which logD is on file for Cc1[nH]c2c(Cl)c(Cl)ccc2c(=O)c1-c1ccccc1 ?
3.27

Form field: reported logD of COc1ccc2c(=O)c(Cc3ccccc3)c(C)[nH]c2c1
2.52

Bench note: what logD did Cc1[nH]c2cc(Cl)c(Cl)cc2c(=O)c1-c1ccccc1 show?
3.05

Recorded logD for Cc1[nH]c2cc(Cl)cc(Cl)c2c(=O)c1-c1ccccc1 , please?
2.72

###

Test: Lipophilicity, log D of the compound at pH 7.4
Conditions: buffer
Answer each item with its documented logD.
Simply state the number, no unit and no words.

If you can, please state the reported logD value of COc1cccc2[nH]c(C)c(-c3ccccc3)c(=O)c12 .
1.63

Quick one: logD for Cc1[nH]c2cc(Cl)ccc2c(=O)c1-c1ccccc1 ?
2.18

Need logD, item Cc1nc2ccccc2c(OCc2ccccc2)c1Br
2.52

If you can, please state the reported logD value of Cc1[nH]c2c(Cl)cc(Cl)cc2c(=O)c1-c1ccccc1 .
3.32

Name the recorded logD for COc1cc2[nH]c(C)c(C3CCCCC3)c(=O)c2cc1Cl .
3.04

Name the reported logD value associated with the molecule CCc1c(C)[nH]c2cc(OC)c(Cl)cc2c1=O
2.43

// query logD value for entry Cc1[nH]c2ccccc2c(=O)c1Br
1.67

Requested read-out: logD. Entry: CCCCCCCCCc1c(C)[nH]c2cc(OC)c(Cl)cc2c1=O
4.74

What does the data say about its logD? Entry: Cc1[nH]c2ccc(Cl)cc2c(=O)c1Cc1ccccc1
2.79

May I ask what logD has been recorded for COc1ccc2nc(C)c(Cc3ccccc3)c(OC)c2c1 ?
4.2

Find the recorded logD belonging to COc1cc2[nH]c(C)c(-c3ccccc3)c(=O)c2cc1Br and report it.
2.2

Report logD for Cc1[nH]c2cccc(Cl)c2c(=O)c1Cc1ccccc1 please.
2.65

###

Test: Passive transcellular permeability of the compound at pH 7.4 by PAMPA
Assay type: ADME
Conditions: read-out: permeability
recorded.metric: Papp (×10⁻⁶ cm/s)
The response must be a number in ×10⁻⁶ cm/s with no trailing unit.

Suppose we examine the molecule Cc1[nH]c2ccccc2c(=O)c1/C=C/C(=O)OC(C)(C)C ; what Papp value has been reported?
124

Given COc1cc2[nH]c(C)c(-c3ccccc3)c(=O)c2cc1Cl , state its recorded Papp.
48.3

// query Papp value for entry Cc1[nH]c2ccc(Cl)cc2c(=O)c1Cc1ccccc1
415

What does the data say about its Papp? Entry: COc1ccc2c(=O)c(Cc3ccccc3)c(C)n(C)c2c1
299

Item COc1cc2[nH]c(C)c(C)c(=O)c2cc1Cl has what recorded Papp?
59.2

Can you look up the measured Papp of Cc1[nH]c2ccccc2c(=O)c1/C=C/c1ccc(O)cc1 for me?
17

Which Papp is listed for COc1cc2[nH]c(C)c(-c3ccccc3)c(=O)c2cc1Br ?
330

// lookup Papp for CCCCC/C=C/c1c(C)[nH]c2cc(OC)c(Cl)cc2c1=O
46.3

Any idea what its Papp is? The molecule is CCc1c(C)[nH]c2cc(OC)c(Cl)cc2c1=O
57.3

Which value of Papp has been reported for COc1ccc2c(=O)cc(C)[nH]c2c1 in the records?
8.91

Item COc1ccc2c(=O)c(-c3ccccc3)c(C)[nH]c2c1 has what recorded Papp?
9.89

State the recorded Papp for this entry: COc1ccc2[nH]c(C)c(-c3ccccc3)c(=O)c2c1
126

Fill blank: measured Papp of the molecule Cc1[nH]c2ccc(Cl)cc2c(=O)c1-c1ccccc1 is ____.
108

Quick check: Papp of COc1ccc2[nH]c(C)c(Cc3ccccc3)c(=O)c2c1 ?
188

Give the measured Papp of Cc1[nH]c2cccc(Cl)c2c(=O)c1-c1ccccc1 .
99.6

Form field: reported Papp of CCCCCCCc1c(C)nc2cc(OC)ccc2c1O
679

Look up Papp for this molecule: COc1cc2[nH]c(C)c(C(C)C)c(=O)c2cc1Cl
187

Value lookup for Papp; key = Cc1[nH]c2c(Cl)cccc2c(=O)c1-c1ccccc1
165

Look up Papp: Cc1[nH]c2c(Cl)c(Cl)ccc2c(=O)c1-c1ccccc1
197

Item Cc1[nH]c2ccc(F)cc2c(=O)c1Br has what recorded Papp?
18.3

What value of Papp has been reported for the following molecule? CCc1c(C)[nH]c2cc(OC)c(F)cc2c1=O
19.1

Given the entry Cc1[nH]c2cc(Cl)ccc2c(=O)c1Cc1ccccc1 , report its measured Papp.
392

Param item = CCCCC#Cc1c(C)[nH]c2ccc(F)cc2c1=O ; retrieve measured Papp.
495

Record request: Papp value, item Cc1[nH]c2ccccc2c(=O)c1Br
13.6

Would you mind telling me what Papp value was observed for COc1cccc2[nH]c(C)c(Cc3ccccc3)c(=O)c12 ?
158

Taken from ChEMBL document CHEMBL1255199.
